Experiment: NCI Yeast Anticancer Drug Screen. Data for the mec2-1 strain (AID 157)
Conditions: S. cerevisiae mec2-1 strain, at 50.0 µM, active compounds read high
This is part of a sample that, as a whole, favours compounds with a hit. Of some 79,000 tested, about 15% had one in any assay.
Quick reference: growth inhibition of the listed items.
Return type: number; implicit unit %.

CCN(CC)C(C)(C)C(=O)/C=C/c1ccc(OC)cc1 = -15.2
O=C=Nc1ccc(Cc2ccc(N=C=O)cc2)cc1 (tested in a mixture with another compound) = -1.5
COc1ccc(N/N=C(/c2ccccc2)c2noc(-c3ccccc3)n2)cc1 = 92.2

Request: Looking for the measured growth inhibition of `C[C@]12CCC(=O)O[C@@H]1CC[C@@H]1[C@@H]2CC[C@]2(C)[C@@H](O)CC[C@@H]12` , can you help?
Result: 14

Request: Looking for the measured growth inhibition of `Cc1ccc(C(C)C)cc1NC(=O)c1c(Cl)c(Cl)c(Cl)c(Cl)c1C(=O)O` , can you help?
Result: 9.8
